// reported logP per item
# testName: Octanol-water partition coefficient, log P of the compound
# Format: physicochemical

# compoundStructureString, logP
measured = [
    ("Oc1ccc(C(=S)Nc2cccc3c2CCCC3)c(O)c1", 4.22),
    ("Oc1ccc(C(=S)Nc2nc(=S)ss2)c(O)c1", 4.45),
    ("C=C(C)c1ccccc1NC(=S)c1ccc(O)cc1O", 4.27),
    ("CCN(C(=S)c1ccc(O)cc1O)c1cccc2ccccc12", 5.03),
    ("Oc1ccc(C(=S)Nc2ccc(N3CCOCC3)cc2)c(O)c1", 2.79),
    ("Oc1ccc(C(=S)Nc2cc(C(F)(F)F)cc(C(F)(F)F)c2)c(O)c1", 4.75),
    ("Oc1ccc(C(=S)Nc2ccccc2-n2cccc2)c(O)c1", 3.29),
]

----------
# Test system: Alternaria alternata
# testName: Antifungal activity against Alternaria alternata assessed as inhibition of mycelial growth at 20 ppm at 21 +/- 1 degC measured after 5 days
# Assay type: functional
# conditionDescription: 120 h, read-out: GI
// reported inhibition of growth at 20 ppm per item

# compound, outputUnit, inhibition of growth at 20 ppm
records = [
    ("CCN(C(=S)c1ccc(O)cc1O)c1cccc2ccccc12", "%", 0),
    ("COc1ccc(NC(=S)c2ccc(O)cc2O)cc1O", "%", 0),
    ("CCCN(CCOc1c(Cl)cc(Cl)cc1Cl)C(=O)n1ccnc1 [PROCHLORAZ]", "%", 81),
    ("Cc1cc(NC(=S)c2ccc(O)cc2O)ccc1N1C(=O)c2ccc(Cl)cc2C1=O", "%", 0),
    ("Oc1ccc(C(=S)N(Cc2ccccc2)c2ccccn2)c(O)c1", "%", 0),
]

----------
# Test system: Phytophthora cactorum
# testName: Antifungal activity against Phytophthora cactorum assessed as inhibition of mycelial growth at 200 ppm at 21 +/- 1 degC measured after 5 days
# Assay type: functional
# conditionDescription: 120 h, read-out: GI
measuredEndpoint: inhibition of growth at 200 ppm

# compoundStructureString, measValue
rows = [
    ("Oc1ccc(C(=S)Nc2cc(C(F)(F)F)cc(C(F)(F)F)c2)c(O)c1", "81%"),
    ("O=C(c1ccccc1)c1ccc(NC(=S)c2ccc(O)cc2O)cc1", "51%"),
    ("Cc1cc(NC(=S)c2ccc(O)cc2O)ccc1N1C(=O)c2ccc(Cl)cc2C1=O", "0%"),
]
